Biological target: GST-SND1(1-203) (Arabidopsis thaliana, UniProt Q9LPI7 1-203)
Sequence: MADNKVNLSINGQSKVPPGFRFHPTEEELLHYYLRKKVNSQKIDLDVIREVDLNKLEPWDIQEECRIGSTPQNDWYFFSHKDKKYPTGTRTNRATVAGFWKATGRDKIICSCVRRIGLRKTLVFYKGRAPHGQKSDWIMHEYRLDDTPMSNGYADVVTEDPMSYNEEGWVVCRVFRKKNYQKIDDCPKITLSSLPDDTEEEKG
Experiment: universal protein binding microarray (PBM); high values mean tight binding
Details: protein: recombinant; tags: GST; chain copies: 2; dsDNA, one strand shown
Below is a list of entries, each paired with its recorded binding signal value.
Entry format: amount then unit.

Use the examples below as a reference point.
- input.sequence: "AGGTAAGG"
  binding signal: "0.147 E-score"
- input.sequence: "GCAAGCAA"
  binding signal: "0.4 E-score"
- input.sequence: "CAAGTCAG"
  binding signal: "0.0706 E-score"
- input.sequence: "GCCGTGTA"
  binding signal: "0.0913 E-score"

## Input Identify binding signal associated with the sequence `AGCGTCAA`
## Output 0.246 E-score

## Input Consider the sequence `CACGTAAA` . State its measured binding signal.
## Output 0.289 E-score

## Input State, in one line, measured binding signal of `ACGTAACC`
## Output 0.392 E-score

## Input Write down binding signal measured for item `AGGGAAAA`
## Output 0.115 E-score

## Input Identify the reported binding signal for the following entry. `TTAAGTAA`
## Output 0.403 E-score

## Input Tell me its binding signal given `AGCGTAAG` as the entry.
## Output 0.4 E-score

## Input Answer with reported binding signal of `GAAGCAAC`
## Output 0.443 E-score

## Input Consider the sequence `ACGTCATC` . State its measured binding signal.
## Output 0.411 E-score

## Input Given `ACCCCGCC` , respond with its binding signal.
## Output 0.32 E-score

## Input State its binding signal: `ACGTTAGC`
## Output 0.343 E-score

## Input Write down binding signal measured for item `AATTCCGT`
## Output 0.122 E-score

## Input Give a short answer stating reported binding signal for `AATTACGC` .
## Output 0.428 E-score

## Input Using known records, supply binding signal for `GTAAGGAA`
## Output 0.35 E-score

## Input Recall and state the measured binding signal for `AACACGTC` .
## Output 0.12 E-score

---

Target: GST-ANAC092(1-176) (Arabidopsis thaliana, UniProt Q9FKA0 1-176)
Sequence: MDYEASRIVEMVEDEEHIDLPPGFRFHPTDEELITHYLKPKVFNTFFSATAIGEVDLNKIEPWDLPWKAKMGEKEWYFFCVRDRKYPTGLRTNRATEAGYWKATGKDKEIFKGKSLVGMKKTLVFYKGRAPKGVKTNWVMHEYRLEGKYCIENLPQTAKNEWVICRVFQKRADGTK
Assay: universal protein binding microarray (PBM); high values mean tight binding
Conditions: protein: recombinant; tags: GST; chain copies: 2; dsDNA, one strand shown
readout.kind: binding signal (E-score)
Write the answer as a number in E-score, unit excluded.

Examples with answers:
- input.sequence: "AACGTACG"
  binding signal / E-score: 0.297
- input.sequence: "CACGTAAA"
  binding signal / E-score: 0.425
- input.sequence: "GAAGGGAA"
  binding signal / E-score: 0.091
- input.sequence: "GATGCGTA"
  binding signal / E-score: 0.368
- input.sequence: "CGTCAACC"
  binding signal / E-score: 0.0573

# input for lookup
## Input Please supply the value of reported binding signal for the item `ATTGCTTA`
## Output 0.273

---

Biological target: GST-SND1(1-203) (Arabidopsis thaliana, UniProt Q9LPI7 1-203)
Sequence: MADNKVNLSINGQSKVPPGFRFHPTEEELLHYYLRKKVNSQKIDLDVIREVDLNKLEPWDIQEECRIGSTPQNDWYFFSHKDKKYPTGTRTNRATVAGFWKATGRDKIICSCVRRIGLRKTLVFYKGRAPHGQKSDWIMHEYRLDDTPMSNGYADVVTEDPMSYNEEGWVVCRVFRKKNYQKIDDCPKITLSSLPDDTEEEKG
Assay: universal protein binding microarray (PBM); high values mean tight binding
Details: protein: recombinant; tags: GST; chain copies: 2; dsDNA, one strand shown
# label = t if binding signal < 0.3 E-score else f

- input.sequence: "CACACGTC"
  classification: "t"
- input.sequence: "CACGAAAC"
  classification: "t"
- input.sequence: "ATTGCGTA"
  classification: "f"

## Input State whether 0.3 E-score exceeds binding signal recorded for `GCGTGTGA` .
## Output t

## Input Answer whether the sequence `GTTACGTA` has binding signal strictly less than 0.3 E-score
## Output f

## Input Quick check: does `ACGCCAAC` have binding signal under 0.3 E-score?
## Output f

---

Molecular target: GST-SND1(1-203) (Arabidopsis thaliana, UniProt Q9LPI7 1-203)
Sequence: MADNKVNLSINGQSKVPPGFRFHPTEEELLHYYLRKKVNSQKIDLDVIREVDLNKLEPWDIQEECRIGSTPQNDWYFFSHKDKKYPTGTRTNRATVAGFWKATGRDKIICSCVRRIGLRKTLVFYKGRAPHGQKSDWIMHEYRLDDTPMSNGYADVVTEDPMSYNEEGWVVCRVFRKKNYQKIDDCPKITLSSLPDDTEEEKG
Experiment: universal protein binding microarray (PBM); high values mean tight binding
Conditions: protein: recombinant; tags: GST; chain copies: 2; dsDNA, one strand shown
Examples of sequences with documented binding signal follow.
Could you give me the number in E-score? Just the number is fine.

Examples with answers:
- input.sequence: "GTCAAACA"
  endpoint.unit: "E-score"
  binding signal: 0.0891
- input.sequence: "TTACGCAA"
  endpoint.unit: "E-score"
  binding signal: 0.495
- input.sequence: "TGAAGTAA"
  endpoint.unit: "E-score"
  binding signal: 0.424
- input.sequence: "CACGTCAC"
  endpoint.unit: "E-score"
  binding signal: 0.328
- input.sequence: "ACGCAATG"
  endpoint.unit: "E-score"
  binding signal: 0.437
- input.sequence: "ACGCAAGC"
  endpoint.unit: "E-score"
  binding signal: 0.417
- input.sequence: "CACGCTAG"
  endpoint.unit: "E-score"
  binding signal: 0.218
- input.sequence: "GAAGTAAA"
  endpoint.unit: "E-score"
  binding signal: 0.329

## Input Provide binding signal value for the following sequence: `ACACTCAA`
## Output 0.264

## Input // Input: `CCAAGCAA` . Output its binding signal only.
## Output 0.405

## Input Note down binding signal recorded for `AAGTAATC`
## Output 0.347

## Input For `TAGCGTAA` , write its binding signal.
## Output 0.492

## Input Report binding signal for `TAACGTAA`
## Output 0.488

## Input Report binding signal for `AACACGCA`
## Output 0.335

## Input Read off the recorded binding signal for `ATGTCAAC`
## Output 0.0631

---

Target: GST-SND1(1-203) (Arabidopsis thaliana, UniProt Q9LPI7 1-203)
Sequence: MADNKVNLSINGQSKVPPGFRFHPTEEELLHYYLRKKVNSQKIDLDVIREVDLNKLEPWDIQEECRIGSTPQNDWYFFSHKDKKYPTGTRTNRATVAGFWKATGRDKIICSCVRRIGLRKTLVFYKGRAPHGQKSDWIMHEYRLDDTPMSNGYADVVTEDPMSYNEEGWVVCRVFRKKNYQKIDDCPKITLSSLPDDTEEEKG
Assay: universal protein binding microarray (PBM); transcription factors of Arabidopsis thaliana; high values mean tight binding
Details: protein: recombinant; tags: GST; chain copies: 2; dsDNA, one strand shown
Reported binding signal is given for each of the following sequences.
Could you give me the number in E-score? Just the number is fine.

- input.sequence: "ACCGTCAA"
  binding signal, E-score: 0.148
- input.sequence: "TCAAGTCA"
  binding signal, E-score: 0.171
- input.sequence: "GTAAGTCA"
  binding signal, E-score: 0.234

## Input Please respond with reported binding signal (system GST-SND1(1-203) (Arabidopsis thaliana, UniProt Q9LPI7 1-203)) for `ATACGCCA` .
## Output 0.398

## Input Name the value of binding signal reported for `CACGGAAG` when tested on GST-SND1(1-203) (Arabidopsis thaliana, UniProt Q9LPI7 1-203).
## Output 0.164

## Input Give the observed binding signal of `GGTCAAAA` for GST-SND1(1-203) (Arabidopsis thaliana, UniProt Q9LPI7 1-203).
## Output 0.123

## Input Report binding signal from GST-SND1(1-203) (Arabidopsis thaliana, UniProt Q9LPI7 1-203) testing of `ATACGTTA`
## Output 0.433

## Input Recall the reported binding signal of `GCGTGTAA` on GST-SND1(1-203) (Arabidopsis thaliana, UniProt Q9LPI7 1-203) and write it down.
## Output 0.347

## Input Report binding signal under test system GST-SND1(1-203) (Arabidopsis thaliana, UniProt Q9LPI7 1-203) for `AAAAGTCA` .
## Output 0.257

## Input // fetch binding signal for `CTAAGTAA` ; system: GST-SND1(1-203) (Arabidopsis thaliana, UniProt Q9LPI7 1-203)
## Output 0.394

## Input Recall the reported binding signal of `GCGTAAAA` when tested on GST-SND1(1-203) (Arabidopsis thaliana, UniProt Q9LPI7 1-203).
## Output 0.407

## Input Look up GST-SND1(1-203) (Arabidopsis thaliana, UniProt Q9LPI7 1-203) data: binding signal of `CTGTTGAC` , then report it.
## Output 0.0669

Source listed as paper PMC4081100.
